Biological target: T1, APG293 (human CD95L-T4) (human)
T1 chain: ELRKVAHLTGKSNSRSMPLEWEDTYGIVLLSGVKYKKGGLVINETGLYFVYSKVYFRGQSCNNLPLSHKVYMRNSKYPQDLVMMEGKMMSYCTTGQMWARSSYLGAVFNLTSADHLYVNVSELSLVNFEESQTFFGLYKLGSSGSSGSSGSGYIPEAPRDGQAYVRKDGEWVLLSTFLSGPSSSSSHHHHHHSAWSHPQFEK
Assay: cell-based or functional assay
The following binders are listed with their measured EC50, Assay 5: antagonism of CD95L-T4-induced apoptosis on Jurkat A3 cells values.
Please report the result as a number followed by the unit.

// solved cases for EC50, Assay 5: antagonism of CD95L-T4-induced apoptosis on Jurkat A3 cells follow
[
  {
    "binder": "scFv-minibody SEQ ID 39 (scFv) scFv: EVQLVESGGGLVQPGGSLRLSCAASGFSFSSGYDMCWVRQAPGKGLEWVACIDTDNDATYYADSVKGRFTISKDSSKNTLYLQMNSLRAEDTAVYYCARTHGDYVAFKLWGQGTLVTVSGGGSGGGSGGGSGGGSDIQMTQSPSSLSASVGDRVTITCQSSQSVYKNNDLSWYQQKPGKAPKLLIYQASKLASGVPSRFSGSGSGTDFTLTISSLQPEDFATYYCAGGYTASIYAFGQGTKVEIKGSGSSGQPREPQVYTLPPSREEMTKNQVSLTCLVKGFYPSDIAVEWESQGSPENNYKTTPPVLDSDGSFFLYSKLTVDKSRWQQGNVFSCSVMHEALHNHYTQKSLSLSPGSSSSSSAWSHPQFEK",
    "result": "0.0865 µg/mL"
  },
  {
    "binder": "scFv-minibody SEQ ID 50 (scFv) scFv: EVQLVESGGGLVQPGGSLRLSCAASGFSFSDHYWMCWVRQAPGKGLEWVACIYTADSDSYYADSVKGRFTISKDSSKNTLYLQMNSLRAEDTAVYYCARNGAYAGGPYGDLWGQGTLVTVSGGGSGGGSGGGSGGGSDIQMTQSPSSLSASVGDRVTITCKASQSIRTSLVWYQQKPGKAPKLLIYKASDLPSGVPSRFSGSGSGTDFTLTISSLQPEDFATYYCQSYDFRDTINNGHSFGQGTKVEIKGSGSSGQPREPQVYTLPPSREEMTKNQVSLTCLVKGFYPSDIAVEWESQGSPENNYKTTPPVLDSDGSFFLYSKLTVDKSRWQQGNVFSCSVMHEALHNHYTQKSLSLSPGSSSSSSAWSHPQFEK",
    "result": "0.128 µg/mL"
  },
  {
    "binder": "scFv-minibody SEQ ID 51 (scFv) scFv: EVQLVESGGGLVQPGGSLRLSCAASGFSFSDHYWMSWVRQAPGKGLEWVSAIYTADSDSYYADSVKGRFTISKDSSKNTLYLQMNSLRAEDTAVYYCARNGAYAGGPYGDLWGQGTLVTVSGGGSGGGSGGGSGGGSDIQMTQSPSSLSASVGDRVTITCKASQSIRTSLVWYQQKPGKAPKLLIYKASDLPSGVPSRFSGSGSGTDFTLTISSLQPEDFATYYCQSYDFRDTINNGHSFGQGTKVEIKGSGSSGQPREPQVYTLPPSREEMTKNQVSLTCLVKGFYPSDIAVEWESQGSPENNYKTTPPVLDSDGSFFLYSKLTVDKSRWQQGNVFSCSVMHEALHNHYTQKSLSLSPGSSSSSSAWSHPQFEK",
    "result": "1.48 µg/mL"
  }
]

// next item, EC50, Assay 5: antagonism of CD95L-T4-induced apoptosis on Jurkat A3 cells requested
For scFv-minibody SEQ ID 40 (scFv) scFv: EVQLVESGGGLVQPGGSLRLSCAASGFSFSSGYDMSWVRQAPGKGLEWVSAIDTDNDATYYADSVKGRFTISKDSSKNTLYLQMNSLRAEDTAVYYCARTHGDYVAFKLWGQGTLVTVSGGGSGGGSGGGSGGGSDIQMTQSPSSLSASVGDRVTITCQSSQSVYKNNDLSWYQQKPGKAPKLLIYQASKLASGVPSRFSGSGSGTDFTLTISSLQPEDFATYYCAGGYTASIYAFGQGTKVEIKGSGSSGQPREPQVYTLPPSREEMTKNQVSLTCLVKGFYPSDIAVEWESQGSPENNYKTTPPVLDSDGSFFLYSKLTVDKSRWQQGNVFSCSVMHEALHNHYTQKSLSLSPGSSSSSSAWSHPQFEK , what is its reported EC50, Assay 5: antagonism of CD95L-T4-induced apoptosis on Jurkat A3 cells? 0.701 µg/mL
